# Target: T1, peptide on HLA-B*07:02 (human)
# T1 peptide: VPSVWRSSL
# Measurement notes: activation reporter or marker
Property: binding result

Request: Returns the measured binding result for the input binder. Input: R25 (TCR, V domains shown) Valpha: GENVEQHPSTLSVQEGDSAVIKCTYSDSASNYFPWYKQELGKGPQLIIDIRSNVGEKKDQRIAVTLNKTAKHFSLHITETQPEDSAVYFCAAQKTSYDKVIFGPGTSLSVIP Vbeta: EAQVTQNPRYLITVTGKKLTVTCSQNMNHEYMSWYRQDPGLGLRQIYYSMNVEVTDKGDVPEGYKVSRKEKRNFPLILESPSPNQTSLYFCASSTPGSLNEQFFGPGTRLTVL
Response: recognises

Request: Next binder up: R24 (TCR, V domains shown) Valpha: GQQVMQIPQYQHVQEGEDFTTYCNSSTTLSNIQWYKQRPGGHPVFLIQLVKSGEVKKQKRLTFQFGEAKKNSSLHITATQTTDVGTYFCAVHMNRDDKIIFGKGTRLHILP Vbeta: EAQVTQNPRYLITVTGKKLTVTCSQNMNHEYMSWYRQDPGLGLRQIYYSMNVEVTDKGDVPEGYKVSRKEKRNFPLILESPSPNQTSLYFCASSLTSFYEQYFGPGTRLTVT
Response: recognises

Request: Same for R21 (TCR, V domains shown) Valpha: AQKVTQAQTEISVVEKEDVTLDCVYETRDTTYYLFWYKQPPSGELVFLIRRNSFDEQNEISGRYSWNFQKSTSSFNFTITASQVVDSAVYFCALGTYGNNRLAFGKGNQVVVIP Vbeta: NAGVTQTPKFRILKIGQSMTLQCAQDMNHNYMYWYRQDPGMGLKLIYYSVGAGITDKGEVPNGYNVSRSTTEDFPLRLELAAPSQTSVYFCASTKGGPSSYEQYFGPGTRLTVT
Response: recognises
